The reported numbers originate from paper PMC12040169.

# ASSAY PROTOCOL: in vitro
# SETUP CONDITIONS: human, hela cells, % viability
# note: exactly 90% is not below, so it is NOT MET; use MET for viability at 28.5 h, 10 µM strictly under it

Would you please look over these solved cases?
[
  {
    "MOLECULE": "COc1ccc2c(c1)C1(Nc3ccccc3C(=O)N1c1ccccc1)C(=O)N2 (stereo not drawn)",
    "GROUP LABEL": "NOT MET"
  },
  {
    "MOLECULE": "COc1cc2c(cc1NC(=O)c1cccc([N+](=O)[O-])c1)oc1ccccc12",
    "GROUP LABEL": "NOT MET"
  },
  {
    "MOLECULE": "CCn1cc(CN2C3CCC2CC(O)(c2ccc(F)cc2)C3)cn1 (stereo not drawn)",
    "GROUP LABEL": "MET"
  },
  {
    "MOLECULE": "CCCCC(=O)N(C)c1c(C)nc2ccc(C(=O)Nc3ccc(C(N)=O)cc3)cn12",
    "GROUP LABEL": "NOT MET"
  },
  {
    "MOLECULE": "Cc1cc(N2CCOCC2)c2c(N)c(C)cc(C)c2n1",
    "GROUP LABEL": "MET"
  },
  {
    "MOLECULE": "O=C(c1ccccc1)N1C[C@@H]2CCCCN(CC3CC3)[C@@H]2C1",
    "GROUP LABEL": "NOT MET"
  }
]

[in] Confirm or reject: viability at 28.5 h, 10 µM of O=C(NCc1cc[nH]n1)N1CCCN(Cc2cccs2)CC1 lies strictly below 90%
[out] MET

[in] Let us now turn to CC(=O)NC(CCC(N)=O)C(=O)N1CC2(CCCC2)c2c(F)cccc21 (stereo not drawn)
[out] MET

====

// viability at 28.5 h, 10 µM lookup, one value per entry
# ASSAY PROTOCOL: in vitro
# SETUP CONDITIONS: human, hela cells, % viability
Give just the numeric value; % need not be written.

Answered examples (4):
[
  {
    "COMPOUND": "O=C(c1ccco1)c1coc2ccc(O)cc12 [CBK115570]",
    "viability at 28.5 h, 10 µM (%)": 113
  },
  {
    "COMPOUND": "CC(C)CN(CC(=O)NC1(c2ccccc2)CCC1)C(=O)N(C)C [CBK062704]",
    "viability at 28.5 h, 10 µM (%)": 96.1
  },
  {
    "COMPOUND": "COc1ccccc1CN[C@@H]1CCC[C@H]1Cc1cc(C)no1 [CBK283005]",
    "viability at 28.5 h, 10 µM (%)": 103
  },
  {
    "COMPOUND": "O=C(Cc1ccc(F)cc1)N1CCCC(c2cc3ncccc3[nH]2)C1 (centres unmarked) [CBK283414]",
    "viability at 28.5 h, 10 µM (%)": 109
  }
]

Switching to the query record.
[in] Fill in: viability at 28.5 h, 10 µM of O=C(Nc1nc2ccccc2[nH]1)c1cccc(N2CCCS2(=O)=O)c1 [CBK304584] is ___
[out] 100

====

# ASSAY PROTOCOL: in vitro
# SETUP CONDITIONS: human, hela cells, % viability
PARAMETER MEASURED: viability at 28.5 h, 10 µM

Answered examples (3):
[
  {
    "MOLECULE": "O=C(CN1C(=O)c2ccccc2C1=O)Nc1cccc(-c2cnc3ccccc3n2)c1",
    "viability at 28.5 h, 10 µM": "115%"
  },
  {
    "MOLECULE": "CSCCN1CCC(Oc2nccnc2OCCN2CCOCC2)CC1",
    "viability at 28.5 h, 10 µM": "92.9%"
  },
  {
    "MOLECULE": "COc1ccccc1N1C(=O)c2ccc(C(=O)Nc3cc([N+](=O)[O-])ccc3O)cc2C1=O",
    "viability at 28.5 h, 10 µM": "95.3%"
  }
]

[in] Fill in: viability at 28.5 h, 10 µM of CCCCOC(=O)CCn1c(=S)oc2ccccc21 is ___
[out] 87.9%

[in] Let us now turn to CCN(CC)CC1CCCN(C(=O)CCn2ccc3ccncc32)C1 (stereo not shown)
[out] 85.4%

[in] Let us now turn to Fc1ccc(SCCc2ccccn2)cc1 [CBK026491G]
[out] 82.9%

[in] Let us now turn to CN(C)c1ccccc1C1(O)CN2CCC1CC2 (stereo not shown)
[out] 86.8%

[in] Let us now turn to COc1ccc(OCC(=O)Nc2nonc2-c2ccccc2)cc1
[out] 93.9%

[in] Let us now turn to Cc1nc(N)nc(NCC(O)CN(C)C)c1Cl (stereo not shown)
[out] 81.7%

[in] Let us now turn to CCCCOc1cccc(C(=O)Nc2ccc(-c3nc4ccccc4o3)c(O)c2)c1
[out] 101%

====

# ASSAY PROTOCOL: in vitro
# SETUP CONDITIONS: human, hela cells, % viability
PARAMETER MEASURED: viability at 28.5 h, 10 µM (%)
Give just the numeric value; % need not be written.

[
  {
    "MOLECULE": "Cc1cc(CN2CCN(C(C)c3nc(C(C)(C)C)no3)CC2)no1 (stereo not drawn) [CBK305641]",
    "viability at 28.5 h, 10 µM / %": 97.7
  },
  {
    "MOLECULE": "Cn1cc(CNCC2CCN(c3ccccc3)C2)c(-c2cccnc2)n1 (stereo not drawn) [CBK304155]",
    "viability at 28.5 h, 10 µM / %": 95.7
  },
  {
    "MOLECULE": "O=C(COCc1nc2ccccc2[nH]1)N1CCC(c2ccccc2)C1 (stereo not drawn) [CBK281840]",
    "viability at 28.5 h, 10 µM / %": 97.7
  },
  {
    "MOLECULE": "CCN(CC)c1c(C)nc2ccc(C(=O)NCCN3CCNC3=O)cn12 [CBK145977]",
    "viability at 28.5 h, 10 µM / %": 97.8
  },
  {
    "MOLECULE": "COc1ccc(C2Sc3ccccc3N(CCN(C)C)C(=O)C2OC(C)=O)cc1 (stereo not drawn) [CBK010647]",
    "viability at 28.5 h, 10 µM / %": 98
  }
]

Switching to the query record.
[in] Fill in: viability at 28.5 h, 10 µM of CCN(CC)CC(=O)Nc1c2c(nc3ccccc13)N(C)CC2 [CBK023917C] is ___
[out] 110

====

# ASSAY PROTOCOL: in vitro
# SETUP CONDITIONS: human, hela cells, % viability
# note: exactly 90% is not below, so it is rule not met; use rule met for viability at 28.5 h, 10 µM strictly under it

Would you please look over these solved cases?
[
  {
    "COMPOUND": "Cc1cc(C)cc(OCc2nnc(SCC(=O)N3CCN(c4ccccc4)CC3)o2)c1 [CBK268012]",
    "GROUP LABEL": "rule not met"
  },
  {
    "COMPOUND": "CCN1CCCC1CNC(=O)c1cc(Br)cnc1N(C)S(C)(=O)=O (stereo not drawn) [CBK076520]",
    "GROUP LABEL": "rule not met"
  },
  {
    "COMPOUND": "O=C(O)COc1ccc(C=C2C(=O)c3ccccc3C2=O)cc1Cl [CBK263857]",
    "GROUP LABEL": "rule met"
  },
  {
    "COMPOUND": "OCC1CCN(Cc2ccc(OC3CCCC3)cc2)C1 (stereo not drawn) [CBK282929]",
    "GROUP LABEL": "rule not met"
  },
  {
    "COMPOUND": "O=C(CN(Cc1ccccc1)S(=O)(=O)c1ccc2c(c1)OCCO2)Nc1ccc2c(c1)OCCO2 [CBK262499]",
    "GROUP LABEL": "rule not met"
  }
]

[in] Confirm or reject: viability at 28.5 h, 10 µM of CCOC(=O)C1CCCN(C(=O)CCn2c(=O)oc3cc(Cl)ccc32)C1 (stereo not drawn) [CBK304516] lies strictly below 90%
[out] rule not met

[in] Let us now turn to O=C1NC2(CC3CCC2CC3C(=O)NC2CC2)Oc2ccccc21 (stereo not drawn) [CBK284352]
[out] rule not met

[in] Let us now turn to CC[C@H]1CN(C(=O)C2CC2)CC[C@H]1CC(=O)N(C)CC#N [CBK289132]
[out] rule met

====

# ASSAY PROTOCOL: in vitro
# SETUP CONDITIONS: human, hela cells, % viability
# note: exactly 90% is not below, so it is condition not met; use condition met for viability at 28.5 h, 10 µM strictly under it

Would you please look over these solved cases?
[
  {
    "MOLECULE": "CCCC1COC(c2ccc(C#N)cc2)OC1 (stereo not drawn)",
    "GROUP LABEL": "condition not met"
  },
  {
    "MOLECULE": "O=C(CS(=O)(=O)c1cc2c(N3CCNCC3)nccc2s1)c1ccc(N2CCCC2)cc1 [CBK042232C]",
    "GROUP LABEL": "condition met"
  },
  {
    "MOLECULE": "O=C(NCCCN1CCOCC1)c1cnc(-c2ccccc2)c(-c2ccncc2)c1",
    "GROUP LABEL": "condition not met"
  },
  {
    "MOLECULE": "O=C(Nc1ccc2nc(SCc3ccc([N+](=O)[O-])cc3)sc2c1)c1ccccc1",
    "GROUP LABEL": "condition not met"
  }
]

[in] Confirm or reject: viability at 28.5 h, 10 µM of Cc1ccc2c(c1)C1(CCN(CC3CC3)CC1)NC(=O)C2 lies strictly below 90%
[out] condition not met

[in] Let us now turn to CCCC(=O)N1CCn2c(nnc2-c2cncc(Br)c2)C1
[out] condition not met
